# System: UniProt P55789
# Sequence (P55789 whole entry): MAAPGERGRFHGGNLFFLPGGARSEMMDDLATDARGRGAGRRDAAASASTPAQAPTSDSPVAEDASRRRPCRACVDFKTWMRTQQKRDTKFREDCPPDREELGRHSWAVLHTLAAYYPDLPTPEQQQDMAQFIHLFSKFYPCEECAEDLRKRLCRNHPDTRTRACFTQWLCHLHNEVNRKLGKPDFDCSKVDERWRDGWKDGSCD
# Test Method Notes: ALR-catalysed DTT oxidation blockers – biochemical, H2O2 detection, luminescence, cherry-pick, dose response (AID 493248)
Calls of active or inactive are those of the source.

Molecule	AC50
Cc1cccc(N2C(=O)/C(=C\NNC(=O)c3ccccc3Cl)c3ccccc3C2=O)n1	9.36 µM (active)
CCC(=O)N(C)CCc1cc2c(c(OC)c1/C=N/Nc1ccc(C(=O)O)cc1)OCO2	3.56 µM (active)
COc1ccc(OC)c(NC(=O)CCN2CCN(c3ccccc3)CC2)c1	3.7 µM (active)
NNC(=O)c1cc(-c2ccccc2)sc1N	8.45 µM (active)
COC(=O)/C=C/S(=O)(=O)c1ccc(NC(C)=O)cc1	0.118 µM (active)
O=C(c1ccccc1)c1cccn1CC(=O)N1CCN(c2ccccc2)CC1	12.4 µM (active)
COc1cc(/C=N/NC(=O)c2ccc(CSc3nncn3C)cc2)cc(OC)c1O	2.25 µM (active)
O=C(O)c1cccc2c(-c3ccccc3)c(-c3ccccc3)[nH]c12	4.56 µM (active)
CCCc1n[nH]c(O)c1C(c1ccc(Br)cc1)C(C#N)C#N (stereo not given)	2.24 µM (active)
O=C(Nc1ccc(Cl)c(Cl)c1)Nc1ccccc1C(=O)O	0.182 µM (active)

* * *

# System: Streptokinase A (Streptococcus pyogenes serotype M1)
# Sequence (P10520 whole entry): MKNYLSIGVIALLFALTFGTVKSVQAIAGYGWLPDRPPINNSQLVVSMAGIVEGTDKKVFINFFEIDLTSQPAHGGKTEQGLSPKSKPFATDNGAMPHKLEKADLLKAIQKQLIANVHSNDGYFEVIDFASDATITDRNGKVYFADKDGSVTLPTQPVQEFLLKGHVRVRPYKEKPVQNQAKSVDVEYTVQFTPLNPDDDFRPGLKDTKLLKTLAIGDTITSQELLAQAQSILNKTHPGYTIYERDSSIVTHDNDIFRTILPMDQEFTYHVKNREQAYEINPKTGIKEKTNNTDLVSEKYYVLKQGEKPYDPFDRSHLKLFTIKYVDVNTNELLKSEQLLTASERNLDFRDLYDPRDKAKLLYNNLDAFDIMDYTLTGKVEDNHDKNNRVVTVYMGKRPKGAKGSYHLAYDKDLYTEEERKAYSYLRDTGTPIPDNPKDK
# Test Method Notes: viability-normalized secreted streptokinase activity reduction – plasminogen activation absorbance, OD405, dose response (AID 1914);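 note: secreted streptokinase activity via plasminogen activation per viability signal from cell pellet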
# Type: functional, Streptococcus pyogenes M1 GAS
Calls of active or inactive are those of the source.

Molecule	EC50
CCCCCCc1nc2ccccc2c(=O)n1NC(=O)c1c(O)c2c(n(CC(C)C)c1=O)CCCC2	> 150 µM (not active)
C=C(C)CNC(=S)NNC(=O)CCn1c2ccc(Cl)cc2c2cc(Cl)ccc21	> 150 µM (not active)
Cn1c(=O)c(C(=O)NNC(=O)c2ccccc2Br)c(O)c2ccccc21	> 150 µM (not active)
O=C(NC(=S)Nc1ccc(N2CCOCC2)c(Cl)c1)c1cccs1	> 150 µM (not active)
COc1ccc(C(CNC(=O)c2cccc(S(=O)(=O)Nc3ccccc3Cl)c2)N2CCOCC2)cc1 (stereo unspecified)	> 150 µM (not active)
CN(C)C=O.N#Cc1ccc(Cl)cc1NC(=O)CSc1nc(O)c2c(C(F)(F)F)cc(-c3cccs3)nc2n1	> 150 µM (not active)
COc1ccc(/C=C2\Sc3ccc(C(=O)N4CCCC4)cc3N(C)C2=O)cc1OC	> 150 µM (not active)
CC(C)N1CCc2c(sc(NC(=O)c3ccc([N+](=O)[O-])o3)c2C(N)=O)C1	> 150 µM (not active)
CCCCN1C(=O)NC(=O)/C(=C(\C)Nc2ccc(OCC)cc2)C1=O	> 150 µM (not active)
CCCCc1c(C)nn(-c2nnc3c4ccccc4n(CC)c3n2)c1C	> 150 µM (not active)
C=CCNC(=O)c1ccccc1NC(=O)c1ccc(Cl)c(S(=O)(=O)Nc2cc(C)ccc2C)c1	41.7 µM (active)

* * *

Reported EC50 is given for each of the following compounds.
# System: Protein RecA (Mycobacterium tuberculosis, UniProt P9WHJ3)
# Test Method Notes: Fluorescence Cell-Free Homogeneous Dose Retest to Identify Inhibitors of RecA-Intein Splicing Activity. [Related pubchem assays (depositor defined):AID2097, AID2223, AID489010, AID492950]
# Assay type: functional
Activity calls are given as the source filed them.

Compound	EC50
N#Cc1nccnc1S(=O)(=O)c1cccs1	6.36 µM (active)
O=C1C(Nc2ccccc2)=C(N2CCCCC2)C(=O)c2ccccc21	2.21 µM (active)
CSc1nc(=S)n(-c2ccc([N+](=O)[O-])cc2)c(C)c1C(C)=O	12.1 µM (active)
CCCc1n[nH]c(O)c1C(c1ccc(Br)cc1)C(C#N)C#N (stereo not drawn)	4.06 µM (active)
CC(C)c1n[nH]c2c1C(c1cccnc1)C(C#N)=C(N)O2 (stereo not drawn)	1.81 µM (inconclusive)
Cc1ccc(NC(=O)C(=Cc2ccc(C(=O)O)cc2)C(=O)Nc2ccc(C)cc2C)c(C)c1	3.21 µM (active)
COC(=O)CCCC1=CC2=C(c3ccccc3)C(=O)C(C)(OC(=O)C3CCCC3)C(=O)C2=CN1CCCCO (stereo not drawn)	18.4 µM (active)
CCc1ccc(S(=O)(=O)/N=C2\C=CC(=O)c3ccccc32)cc1	0.643 µM (active)
O=C(O)CN1C(=O)/C(=C\c2cccc(OCc3ccc(Cl)cc3Cl)c2)SC1=S	11.1 µM (active)
Cc1ccc2nc(N/N=C\c3ccc([N+](=O)[O-])o3)nc(-c3ccccc3)c2c1	208 µM (inconclusive)
CCOc1ccc(N=Nc2c(N)n[nH]c2O)cc1	3.85 µM (active)
Cc1ccc(Sc2c(C)[nH]n(C(C)(C)C)c2=O)cc1	1.47 µM (active)
Clc1ccc(-n2nnnc2Sc2ncnc3sccc23)cc1	1.03 µM (active)

* * *

# System: Protein skinhead-1 (Caenorhabditis elegans, UniProt P34707)
# Sequence (P34707 whole entry): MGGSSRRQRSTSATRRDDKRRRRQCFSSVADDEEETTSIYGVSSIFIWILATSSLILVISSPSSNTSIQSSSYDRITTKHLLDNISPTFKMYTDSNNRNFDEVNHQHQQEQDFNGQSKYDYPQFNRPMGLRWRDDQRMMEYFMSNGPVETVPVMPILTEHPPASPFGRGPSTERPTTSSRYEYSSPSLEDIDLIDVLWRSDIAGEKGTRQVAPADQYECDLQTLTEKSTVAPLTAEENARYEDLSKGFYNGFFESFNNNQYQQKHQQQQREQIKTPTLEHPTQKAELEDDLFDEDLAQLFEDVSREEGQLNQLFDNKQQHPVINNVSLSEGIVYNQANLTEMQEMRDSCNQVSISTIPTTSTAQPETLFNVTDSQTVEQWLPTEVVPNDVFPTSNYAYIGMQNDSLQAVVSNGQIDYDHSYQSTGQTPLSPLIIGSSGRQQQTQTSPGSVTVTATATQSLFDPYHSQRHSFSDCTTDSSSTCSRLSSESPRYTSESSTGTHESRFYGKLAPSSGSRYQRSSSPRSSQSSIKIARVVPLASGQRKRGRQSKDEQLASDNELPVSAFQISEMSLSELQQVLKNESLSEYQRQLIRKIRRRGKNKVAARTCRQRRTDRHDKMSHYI
# Assay type: functional
The source made the active and inactive calls.
Classes used: active, inactive

Compound	Category Label
CN(C)CCCNc1cc(C(C)(C)C)nc2c(-c3ccc(Cl)cc3)cnn12	inactive
COC(=O)CN1C(=S)N(Cc2ccccc2)C(=O)C1CC(=O)Nc1ccc(Br)cc1 (configuration not stated)	inactive
CSc1ccc(Cl)c(C(=O)NCc2ccco2)c1	inactive
Cc1cc(-c2nc3cc(F)ccc3s2)ccc1N	active
Brc1ccc(-n2cnc(-c3ccccc3)c2)cc1	inactive
COc1ccccc1C(=O)Nc1ccc(Br)c2cccnc12	inactive
Cn1c(=O)n(C)c2cc(/C=C(/C#N)C(=O)NCc3ccco3)ccc21	inactive

* * *

# System: Short transient receptor potential channel 4 (Mus musculus)
# Sequence (Q9QUQ5 whole entry): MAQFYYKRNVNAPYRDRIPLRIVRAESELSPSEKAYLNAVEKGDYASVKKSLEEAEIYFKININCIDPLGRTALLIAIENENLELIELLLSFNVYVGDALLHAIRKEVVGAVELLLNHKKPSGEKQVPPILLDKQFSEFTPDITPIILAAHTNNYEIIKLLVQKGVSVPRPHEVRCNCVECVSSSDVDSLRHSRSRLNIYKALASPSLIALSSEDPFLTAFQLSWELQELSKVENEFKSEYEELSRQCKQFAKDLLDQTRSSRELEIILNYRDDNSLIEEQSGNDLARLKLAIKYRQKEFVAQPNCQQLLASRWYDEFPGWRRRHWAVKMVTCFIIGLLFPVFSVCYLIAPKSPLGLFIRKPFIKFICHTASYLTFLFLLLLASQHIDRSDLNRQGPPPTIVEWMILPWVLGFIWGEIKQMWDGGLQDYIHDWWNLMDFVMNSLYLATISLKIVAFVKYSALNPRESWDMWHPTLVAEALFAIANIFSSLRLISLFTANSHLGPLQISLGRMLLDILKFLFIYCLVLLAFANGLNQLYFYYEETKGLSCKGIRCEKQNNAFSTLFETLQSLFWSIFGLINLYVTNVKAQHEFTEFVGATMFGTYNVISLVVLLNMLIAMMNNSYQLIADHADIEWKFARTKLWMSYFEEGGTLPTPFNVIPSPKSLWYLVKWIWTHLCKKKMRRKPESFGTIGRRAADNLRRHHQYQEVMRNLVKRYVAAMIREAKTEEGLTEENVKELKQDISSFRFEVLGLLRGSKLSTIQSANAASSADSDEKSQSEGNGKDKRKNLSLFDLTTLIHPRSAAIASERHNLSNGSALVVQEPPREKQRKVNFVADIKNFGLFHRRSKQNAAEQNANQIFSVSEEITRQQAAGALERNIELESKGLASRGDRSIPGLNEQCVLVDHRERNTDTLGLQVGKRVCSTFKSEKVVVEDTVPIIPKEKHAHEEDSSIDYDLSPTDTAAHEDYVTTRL
# Test Method Notes: block of DAMGO-driven TRPC4 calcium entry – cell-based, HEK293 TRPC4/mu-opioid, Fluo-4 calcium, dose response (AID 434942);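 note: potency of inhibitors blocking the TRPC4 calcium response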
# Format: functional
Active and inactive are the calls of the source.
Measured Attribute: EC50

Compound	Result
CCCC[n+]1c2ccccc2cc2ccccc21	4.22 µM (active)
C=CCSc1nnc2n(-c3ccccc3OC)c(=O)c3c4c(sc3n12)CCC4	4.73 µM (active)
CCCCC(CC)c1nnc(NC(=O)c2cccs2)s1 (stereo not given)	5.31 µM (active)
O=C(COc1ccc(F)cc1)c1c(O)cc(O)cc1O	3.35 µM (active)
S=C(Nc1ccccc1)Nc1cc(Cl)ccc1Oc1ccccc1	4.73 µM (active)

* * *

Quick reference for IC50 among some compounds
# System: Estrogen receptor (Homo sapiens, UniProt P03372);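 note: potency for inhibiting coactivator peptide recruitment to the receptor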
# Sequence (P03372 whole entry): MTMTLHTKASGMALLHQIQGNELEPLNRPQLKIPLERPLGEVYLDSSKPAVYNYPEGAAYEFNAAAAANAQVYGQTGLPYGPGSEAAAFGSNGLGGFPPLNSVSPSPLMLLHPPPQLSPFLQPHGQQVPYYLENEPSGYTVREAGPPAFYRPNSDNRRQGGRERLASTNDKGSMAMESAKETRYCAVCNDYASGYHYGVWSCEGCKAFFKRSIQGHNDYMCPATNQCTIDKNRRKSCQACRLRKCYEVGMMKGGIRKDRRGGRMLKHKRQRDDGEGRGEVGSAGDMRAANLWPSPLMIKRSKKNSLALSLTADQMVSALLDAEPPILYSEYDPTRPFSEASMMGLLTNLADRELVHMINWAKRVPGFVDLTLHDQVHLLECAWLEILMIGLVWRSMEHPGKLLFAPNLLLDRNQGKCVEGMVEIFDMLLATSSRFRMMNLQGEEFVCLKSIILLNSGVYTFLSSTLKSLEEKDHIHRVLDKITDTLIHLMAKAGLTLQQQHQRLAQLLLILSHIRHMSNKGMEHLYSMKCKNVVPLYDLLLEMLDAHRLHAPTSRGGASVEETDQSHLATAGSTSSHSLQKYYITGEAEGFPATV
Activity calls are given as the source filed them.

Smiles Code	IC50
O=C(Nc1ccc2c(c1)nc1n2CCSC1)c1ccco1	14.5 µM (active)
Cc1ccc(/C=c2\sc3nc(-c4ccco4)nn3c2=O)o1	13.9 µM (active)
CCCn1nc(C(=O)OCC(=O)c2ccc3c(c2)NC(=O)CO3)c2ccccc2c1=O	37.9 µM (not active)
O=C(CCCn1c(=S)[nH]c2cc3c(cc2c1=O)OCO3)N1CCN(c2ccc(Cl)cc2)CC1	12.6 µM (active)

Data credit: ChEMBL document CHEMBL1201862
